assay: Antiviral activity against HIV1 IRLL98 in MT4 cells by MTT assay
Observation type: EC50 (µM)
Just the number in µM, nothing appended.

Report measured EC50; entry is Cc1cn([C@H]2C[C@H](N=[N+]=[N-])[C@@H](CO)O2)c(=O)[nH]c1=O
0.008

Report measured EC50; entry is Cc1c(Cc2c(Cl)cccc2Cl)nc(Sc2ccc(F)cc2F)[nH]c1=O
44.7

Report measured EC50; entry is Cc1c(Cc2c(F)cccc2F)nc(Sc2ccccc2)[nH]c1=O
16.7

----------
Parameter: EC50. Scope: all listed entries.
test: Antiviral activity against HIV1 IRLL98 in MT4 cells by MTT assay

Record excerpt, results attached:
compound_string=COc1ccc(Sc2nc(Cc3c(F)cccc3F)c(C)c(=O)[nH]2)cc1 observation_type=EC50 experimental_result="> 57.5 µM"
compound_string=Cc1c(Cc2c(Cl)cccc2Cl)nc(Sc2ccc(C#N)cc2)[nH]c1=O observation_type=EC50 experimental_result="> 27.6 µM"

Now, please, on to the next compound.
Report measured EC50; entry is Cc1c(Cc2c(F)cccc2F)nc(Sc2ccc(Cl)cc2)[nH]c1=O
> 66.1 µM
